Hello, the source for this data is patent US20180057604A1, in case you need it.

Target: BACE1 in primary mouse cortical neurons (mouse, UniProt P56818 46-501)
Sequence (P56818 46-501): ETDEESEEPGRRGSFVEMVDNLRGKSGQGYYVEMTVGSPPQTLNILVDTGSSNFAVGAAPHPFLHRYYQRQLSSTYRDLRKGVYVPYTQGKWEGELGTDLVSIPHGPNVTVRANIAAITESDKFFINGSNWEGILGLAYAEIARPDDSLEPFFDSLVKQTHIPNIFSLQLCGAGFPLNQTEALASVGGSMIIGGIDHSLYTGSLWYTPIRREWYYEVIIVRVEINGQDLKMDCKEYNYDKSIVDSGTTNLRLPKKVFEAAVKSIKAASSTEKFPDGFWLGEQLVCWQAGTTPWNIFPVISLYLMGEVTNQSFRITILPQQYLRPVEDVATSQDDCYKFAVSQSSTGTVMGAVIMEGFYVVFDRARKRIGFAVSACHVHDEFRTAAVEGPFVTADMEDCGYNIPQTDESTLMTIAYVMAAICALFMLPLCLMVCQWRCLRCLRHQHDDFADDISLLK
Assay: cell-based or functional assay
IC50, Abeta x-40 in mouse cortical neurons values, listed per item
# value in nM; strip the unit string

Example results:
5543 (antibody, V domains shown) VH: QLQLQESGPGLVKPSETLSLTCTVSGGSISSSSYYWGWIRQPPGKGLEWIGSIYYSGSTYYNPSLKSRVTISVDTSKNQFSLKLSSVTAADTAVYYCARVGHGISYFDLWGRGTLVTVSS VL: EIVLTQSPATLSLSPGERATLSCRASQSVSSYLAWYQQKPGQAPRLLIYDASNRATGIPARFSGSGSGTDFTLTISSLEPEDFAVYYCQQAYVWPPRTFGGGTKVEIK	18.3
5897 (antibody, V domains shown, anti-BACE1 IgG) VH: QLQLQESGPGLVKPSETLSLTCTVSGGSISWSSYYWSWIRQPPGKGLEWIGSIYKSGRTYYNPSLKSRVTISVDTSKNQFSLKLSSVTAADTAVYYCARVGHGISYFDLWGRGTLVTVSS VL: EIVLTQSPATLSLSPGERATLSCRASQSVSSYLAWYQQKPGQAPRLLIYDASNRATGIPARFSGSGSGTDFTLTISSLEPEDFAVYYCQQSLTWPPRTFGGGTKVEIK	0.3

Field request: IC50, Abeta x-40 in mouse cortical neurons | item: 5891 (antibody, V domains shown, anti-BACE1 IgG) VH: QVQLVQSGAEVKKPGSSVKVSCKASGGTFSSYAISWVRQAPGQGLEWMGNIIPIFGPANYAQKFQGRVTITADESTSTAYMELSSLRSEDTAVYYCARSGGTKYGMLDVWGQGTMVTVSS VL: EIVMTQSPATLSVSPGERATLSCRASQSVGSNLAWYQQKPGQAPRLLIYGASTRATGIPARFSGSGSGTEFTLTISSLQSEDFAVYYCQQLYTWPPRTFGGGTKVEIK 18
